Experiment: activity coefficient (dimensionless); of the first substance listed, at infinite dilution; xn = mol fraction of the nth substance listed
Conditions: 328.15 K; 100 kPa; Liquid; Chromatography; x1 = 0
Each record's class is read off its activity coefficient using these ranges: range A (below 2), range B (2 to below 10), range C (10 or more)

Answered examples (6):
>>> df
                                   compound  group_label
0  CC(C)CC(C)(C)C [2,2,4-trimethylpentane] + CCCC[n+]1ccc(C#N)cc1.O=S(=O)([N-]S(=O)(=O)C(F)(F)F)C(F)(F)F      range C
1  C1=CCCCC1 [cyclohexene] + CCCC[n+]1ccc(C#N)cc1.O=S(=O)([N-]S(=O)(=O)C(F)(F)F)C(F)(F)F      range B
2  CCCCCC [hexane] + CCCC[n+]1ccc(C#N)cc1.O=S(=O)([N-]S(=O)(=O)C(F)(F)F)C(F)(F)F      range C
3  CCCC(=O)OC [methyl butanoate] + CCCC[n+]1ccc(C#N)cc1.O=S(=O)([N-]S(=O)(=O)C(F)(F)F)C(F)(F)F      range A
4  CCC(C)O (stereo unspecified) [butan-2-ol] + CCCC[n+]1ccc(C#N)cc1.O=S(=O)([N-]S(=O)(=O)C(F)(F)F)C(F)(F)F      range B
5  CCC(C)CC [3-methylpentane] + CCCC[n+]1ccc(C#N)cc1.O=S(=O)([N-]S(=O)(=O)C(F)(F)F)C(F)(F)F      range C

With those in mind, consider the next compound.
Query: Into which category would you place CC(C)OC(C)C [diisopropyl ether] + CCCC[n+]1ccc(C#N)cc1.O=S(=O)([N-]S(=O)(=O)C(F)(F)F)C(F)(F)F ?
Result: range B

====

Test: activity coefficient (dimensionless); of the first substance listed, at infinite dilution; xn = mol fraction of the nth substance listed
Conditions: 348.15 K; 100 kPa; Liquid; Chromatography; x1 = 0
attribute_measured: activity coefficient
# print the numeric value only

In [3]: df
Out[3]:
                                   molecule    attribute_measured  reported_measurement
0  CCCCCO [pentan-1-ol] + CCCC[n+]1ccc(C#N)cc1.O=S(=O)([N-]S(=O)(=O)C(F)(F)F)C(F)(F)F  activity coefficient                  2.97
1  CCc1ccccc1 [ethylbenzene] + CCCC[n+]1ccc(C#N)cc1.O=S(=O)([N-]S(=O)(=O)C(F)(F)F)C(F)(F)F  activity coefficient                  2.85
2  CC(C)CO [2-methyl-1-propanol] + CCCC[n+]1ccc(C#N)cc1.O=S(=O)([N-]S(=O)(=O)C(F)(F)F)C(F)(F)F  activity coefficient                  2.32
3  CCOC(C)=O [ethyl acetate] + CCCC[n+]1ccc(C#N)cc1.O=S(=O)([N-]S(=O)(=O)C(F)(F)F)C(F)(F)F  activity coefficient                  1.05
4  CO [methanol] + CCCC[n+]1ccc(C#N)cc1.O=S(=O)([N-]S(=O)(=O)C(F)(F)F)C(F)(F)F  activity coefficient                  1.12

Query: Check the records and state activity coefficient for Cc1ccc(C)cc1 [1,4-dimethylbenzene] + CCCC[n+]1ccc(C#N)cc1.O=S(=O)([N-]S(=O)(=O)C(F)(F)F)C(F)(F)F
Result: 2.65

Query: Tell us which activity coefficient value is on record for CC(C)CC(C)(C)C [2,2,4-trimethylpentane] + CCCC[n+]1ccc(C#N)cc1.O=S(=O)([N-]S(=O)(=O)C(F)(F)F)C(F)(F)F
Result: 34.7

====

Assay: activity coefficient (dimensionless); of the first substance listed, at infinite dilution; xn = mol fraction of the nth substance listed
Conditions: 338.15 K; 100 kPa; Liquid; Chromatography; x1 = 0
attribute_measured: activity coefficient
# respond with the number and nothing more

Example entries and their recorded answers appear below.
>>> print(df.to_string())
                                   compound  reported_measurement
0  C1CCCCCCC1 [cyclooctane] + CCCC[n+]1ccc(C#N)cc1.O=S(=O)([N-]S(=O)(=O)C(F)(F)F)C(F)(F)F                  23.2
1  O [water] + CCCC[n+]1ccc(C#N)cc1.O=S(=O)([N-]S(=O)(=O)C(F)(F)F)C(F)(F)F                  2.52
2  COC(C)(C)C [2-methoxy-2-methylpropane] + CCCC[n+]1ccc(C#N)cc1.O=S(=O)([N-]S(=O)(=O)C(F)(F)F)C(F)(F)F                  3.35
3  CCOCC [diethyl ether] + CCCC[n+]1ccc(C#N)cc1.O=S(=O)([N-]S(=O)(=O)C(F)(F)F)C(F)(F)F                  3.37
4  c1ccccc1 [benzene] + CCCC[n+]1ccc(C#N)cc1.O=S(=O)([N-]S(=O)(=O)C(F)(F)F)C(F)(F)F                  1.22
5  C#CCCCC [1-hexyne] + CCCC[n+]1ccc(C#N)cc1.O=S(=O)([N-]S(=O)(=O)C(F)(F)F)C(F)(F)F                   5.1

Query: Recall and state the measured activity coefficient for CC(C)CC(C)(C)C [2,2,4-trimethylpentane] + CCCC[n+]1ccc(C#N)cc1.O=S(=O)([N-]S(=O)(=O)C(F)(F)F)C(F)(F)F .
Result: 37

Query: Tell me its activity coefficient given CCCCCCC [heptane] + CCCC[n+]1ccc(C#N)cc1.O=S(=O)([N-]S(=O)(=O)C(F)(F)F)C(F)(F)F as the entry.
Result: 37.4

Query: Identify activity coefficient associated with the compound Cc1ccc(C)cc1 [1,4-dimethylbenzene] + CCCC[n+]1ccc(C#N)cc1.O=S(=O)([N-]S(=O)(=O)C(F)(F)F)C(F)(F)F
Result: 2.52

Query: Using the record for C1COCCO1 [1,4-dioxane] + CCCC[n+]1ccc(C#N)cc1.O=S(=O)([N-]S(=O)(=O)C(F)(F)F)C(F)(F)F , state its measured activity coefficient.
Result: 0.544

====

Test: activity coefficient (dimensionless); of the first substance listed, at infinite dilution; xn = mol fraction of the nth substance listed
Conditions: 328.15 K; 100 kPa; Liquid; Chromatography; x1 = 0
Each item that follows carries a reported activity coefficient.

In [3]: df
Out[3]:
                                   compound  reported_measurement
0  c1ccccc1 [benzene] + CCCC[n+]1ccc(C#N)cc1.O=S(=O)([N-]S(=O)(=O)C(F)(F)F)C(F)(F)F                  1.17
1  c1ccsc1 [thiophene] + CCCC[n+]1ccc(C#N)cc1.O=S(=O)([N-]S(=O)(=O)C(F)(F)F)C(F)(F)F                     1
2  CC(C)(C)O [2-methylpropan-2-ol] + CCCC[n+]1ccc(C#N)cc1.O=S(=O)([N-]S(=O)(=O)C(F)(F)F)C(F)(F)F                  2.01
3  C#CCCC [1-pentyne] + CCCC[n+]1ccc(C#N)cc1.O=S(=O)([N-]S(=O)(=O)C(F)(F)F)C(F)(F)F                  3.56
4  C1CCCC1 [cyclopentane] + CCCC[n+]1ccc(C#N)cc1.O=S(=O)([N-]S(=O)(=O)C(F)(F)F)C(F)(F)F                  10.7

Query: Complete the entry with activity coefficient for C1CCCCC1 [cyclohexane] + CCCC[n+]1ccc(C#N)cc1.O=S(=O)([N-]S(=O)(=O)C(F)(F)F)C(F)(F)F
Result: 15.1

Query: State its activity coefficient: CCC[N+](=O)[O-] [1-nitropropane] + CCCC[n+]1ccc(C#N)cc1.O=S(=O)([N-]S(=O)(=O)C(F)(F)F)C(F)(F)F
Result: 0.796

Query: Hello, please tell me recorded activity coefficient for this one: CCCCCCCCCC [decane] + CCCC[n+]1ccc(C#N)cc1.O=S(=O)([N-]S(=O)(=O)C(F)(F)F)C(F)(F)F
Result: 107

Query: Report activity coefficient, nothing else, for this compound: Cc1ccc(C)cc1 [1,4-dimethylbenzene] + CCCC[n+]1ccc(C#N)cc1.O=S(=O)([N-]S(=O)(=O)C(F)(F)F)C(F)(F)F
Result: 2.4

Query: For the compound CCC(=O)CC [pentan-3-one] + CCCC[n+]1ccc(C#N)cc1.O=S(=O)([N-]S(=O)(=O)C(F)(F)F)C(F)(F)F , report activity coefficient.
Result: 0.792

Query: Given the compound C1COCCO1 [1,4-dioxane] + CCCC[n+]1ccc(C#N)cc1.O=S(=O)([N-]S(=O)(=O)C(F)(F)F)C(F)(F)F , write its reported activity coefficient.
Result: 0.502

Query: Recall and state the measured activity coefficient for CC(C)c1ccccc1 [isopropylbenzene] + CCCC[n+]1ccc(C#N)cc1.O=S(=O)([N-]S(=O)(=O)C(F)(F)F)C(F)(F)F .
Result: 4.22
